Each recorded value in this set is attributed to PubChem BioAssay (EPA / NIEHS).

assay_explanation: CEETOX_H295R_DOC: CeeTox H295R High-throughput Steroidogenesis Assay for DOC (AID 2283439)
conditions: actives raise or lower the signal
Calls of active or inactive are those of the source. Rule for the calls: active = hit-call score of the fitted dose curve at least 0.9, where 1 is the maximum; inactive = score below 0.9.
Valid outcomes are listed here; reply with one: T for active, F for inactive

// query Would you mind telling me which call this test gave `CCOP(=S)(OCC)Oc1ccc([N+](=O)[O-])cc1` ?
// result T

// query I would be grateful if you could indicate the recorded call for CCOP(=O)(NC(C)C)Oc1ccc(SC)c(C)c1 (centres undefined) .
// result T

// query For this compound, state the assay outcome: `CCCSP(=O)(OCC)SCCC`
// result F

// query Tell me the assay call for `CNC(=O)Oc1cccc2c1OC(C)(C)O2` please.
// result F

// query What did the test return for `COc1ccc(C(=CC(=O)N2CCOCC2)c2ccc(Cl)cc2)cc1OC` ?
// result F

// query What classification did `CNc1cnn(-c2cccc(C(F)(F)F)c2)c(=O)c1Cl` end up with in this test?
// result F

// query Dear colleague, could you share the recorded outcome for `Nc1nc(N)nc(NC2CC2)n1` when you have a moment?
// result F

// query Identify the outcome logged in this assay for the compound shown: `CCCCN(CC)c1c([N+](=O)[O-])cc(C(F)(F)F)cc1[N+](=O)[O-]`
// result F

// query Short answer needed: outcome of this test for `CCCOCC(=Nc1ccc(Cl)cc1C(F)(F)F)n1ccnc1` ?
// result T
